Experiment: qHTS assay to identify small molecule antagonists of the estrogen receptor beta (ER-beta) signaling pathway - cell viability counter screen (AID 1259382); further: nearly all actives have a fitted effect of over 55% in size
Details: ER-beta-UAS-bla HEK293T viability, CellTiter-Glo luminescence, 16 h; series mostly up to 92.4 µM
Records with an inconclusive call do not appear. The source made the active and inactive calls. The call rests on the fitted dose curve; in most records, active means well fitted cell-killing curve with a large enough effect in the repeat runs; inconclusive means weak or mixed curves; inactive means flat fitted curve, though single readings scatter.
Please reply with one of these outcomes: label 1 (active), label 0 (inactive)

Worked examples, 5 compounds total:
{"compound": "CCCCCCCC/C=C/CCCCCCCC1=NCCN1CCO", "group": "label 1"}
{"compound": "C[n+]1ccn(Cc2ccccc2)c1", "group": "label 0"}
{"compound": "CCCCc1oc2ccc(NS(C)(=O)=O)cc2c1C(=O)c1ccc(OCCCN(CCCC)CCCC)cc1", "group": "label 1"}
{"compound": "C[C@H]1[C@H]2CC[C@H]3[C@@H]4CC=C5C[C@@H](N(C)C)CC[C@]5(C)[C@H]4CC[C@]23CN1C", "group": "label 0"}
{"compound": "c1cc(C(c2ccc(OCC3CO3)cc2)c2ccc(OCC3CO3)cc2)ccc1OCC1CO1 (stereo unspecified)", "group": "label 0"}

q: Any idea what this test logged for CC(=O)SC[C@@H](Cc1ccccc1)C(=O)NCC(=O)OCc1ccccc1 ?
a: label 0

q: Any idea what this test logged for CN(C)[C@@H]1C(=O)C(C(N)=O)=C(O)[C@@]2(O)C(=O)C3=C(O)c4c(O)ccc(Cl)c4[C@@H](O)[C@H]3C[C@@H]12 ?
a: label 0

----------
Biological target: Peroxisome proliferator-activated receptor gamma (Homo sapiens) (UniProt P37231)
Sequence (P37231 whole entry, looked up): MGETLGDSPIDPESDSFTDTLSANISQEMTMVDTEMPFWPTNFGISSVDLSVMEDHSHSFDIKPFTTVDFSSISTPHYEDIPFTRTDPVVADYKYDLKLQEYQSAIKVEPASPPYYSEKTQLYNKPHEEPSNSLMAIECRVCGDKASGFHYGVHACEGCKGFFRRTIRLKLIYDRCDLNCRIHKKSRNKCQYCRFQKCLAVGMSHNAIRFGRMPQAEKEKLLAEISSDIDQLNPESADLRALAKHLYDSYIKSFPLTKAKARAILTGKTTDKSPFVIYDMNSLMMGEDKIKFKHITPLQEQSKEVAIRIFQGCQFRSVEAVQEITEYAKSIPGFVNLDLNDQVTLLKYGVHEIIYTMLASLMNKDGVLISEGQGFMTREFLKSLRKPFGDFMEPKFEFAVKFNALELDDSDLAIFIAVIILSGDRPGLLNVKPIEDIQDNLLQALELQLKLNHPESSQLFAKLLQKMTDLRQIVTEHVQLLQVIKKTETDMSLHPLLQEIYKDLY
Experiment: qHTS assay to identify small molecule antagonists of the peroxisome proliferator-activated receptor gamma (PPARg) signaling pathway (AID 743191); further: nearly all actives have a fitted effect of over 30% in size; further: potency means the concentration at half of the fitted maximal effect
Details: HEK293H PPARg-UAS-bla, beta-lactamase ratio, antagonist, 17 h; series mostly up to 62.6 µM
Records with an inconclusive call do not appear. The source made the active and inactive calls. Calls follow the shape of the full dose curve.
recorded.metric: Potency

{"compound": "C1CCCC1", "observed.value": "inactive"}
{"compound": "O=C(NO)C1(NS(=O)(=O)c2ccc(Oc3ccc(F)cc3)cc2)CCOCC1", "observed.value": "inactive"}
{"compound": "C[C@@H]1C[C@H]2[C@@H]3CCC4=CC(=O)C=C[C@]4(C)[C@@]3(Cl)[C@@H](O)C[C@]2(C)[C@@]1(OC(=O)c1ccco1)C(=O)CCl", "observed.value": "inactive"}
{"compound": "Fc1ccc(C(c2ccc(F)cc2)N2CCN(C/C=C/c3ccccc3)CC2)cc1", "observed.value": "inactive"}
{"compound": "O=C(O)c1c(Cl)cccc1Cl", "observed.value": "inactive"}
{"compound": "CN(C/C=C/C#CC(C)(C)C)Cc1cccc2ccccc12", "observed.value": "inactive"}
{"compound": "O=[N+]([O-])c1ccccc1Nc1ccccc1", "observed.value": "inactive"}
{"compound": "COc1ccc(CN2CCN(C(c3ccc(F)cc3)c3ccc(F)cc3)CC2)c(OC)c1OC", "observed.value": "26.6 µM (active)"}

q: Find the recorded Potency belonging to CN(C)CCCOC1(Cc2ccccc2)CCCCCC1 and report it.
a: inactive

q: Find the recorded Potency belonging to CCC(N)(CO)CO and report it.
a: inactive

q: Find the recorded Potency belonging to Cc1ccc(O)c(C(C)(C)C)c1 and report it.
a: inactive

----------
Test: qHTS assay to identify small molecule antagonists of the estrogen related receptor (ERR) signaling pathway from Tox21 library - cell viability counter screen (AID 1224834); further: nearly all actives have a fitted effect of over 30% in size
Conditions: ERR reporter cells viability, CellTiter-Fluor, 17.5 h; series mostly up to 92.4 µM
Records with an inconclusive call do not appear. Active and inactive are the calls of the source. The call rests on the fitted dose curve; in most records, active means well fitted cell-killing curve with a large enough effect in the repeat runs; inconclusive means weak or mixed curves; inactive means flat fitted curve, though single readings scatter.
Please reply with one of these outcomes: 1 (yes) (active), 0 (no) (inactive)

{"compound": "O=S1(=O)CC(Cl)(Cl)C(Cl)(Cl)C1", "group": "1 (yes)"}
{"compound": "Cc1cccc2c1cc1ccc3cccc4ccc2c1c34", "group": "0 (no)"}
{"compound": "CCC(C)Nc1ccc(NC(C)CC)cc1 (stereo unspecified)", "group": "1 (yes)"}
{"compound": "OCCN1CCN(CC/C=C2/c3ccccc3Sc3ccc(C(F)(F)F)cc32)CC1", "group": "1 (yes)"}
{"compound": "C/C=C1/C(=O)C[C@H]2[C@@H]3CCC4=CC(=O)CC[C@]4(C)[C@H]3CC[C@]12C", "group": "1 (yes)"}

Now consider a different compound.
q: Any idea what this test logged for CC/C(=C(\c1ccc(O)cc1)c1ccc(OCCN(C)C)cc1)c1ccccc1 ?
a: 1 (yes)

----------
Molecular target: Bile acid receptor (Homo sapiens)
Test: qHTS assay to identify small molecule agonists of the farnesoid-X-receptor (FXR) signaling pathway (AID 743220); further: on the % scale 0 is the no-effect control and ±100 the full control effect
Settings: HEK293T FXR-UAS-bla, beta-lactamase FRET ratio, 16 h; series mostly up to 62.6 µM
Excerpt: National Center for Advancing Translational Sciences [NCATS] NIH Chemical Genomics Center [NCGC] U.S. Environmental Protection Agency [EPA] National Institutes of Environmental Health Sciences [NIEHS] National Toxicology Program [NTP] U.S. Food and Drug Administration [FDA] The farnesoid-X-receptor (FXR), a nuclear hormone receptor, is highly expressed in liver, intestine, kidney and adrenal cortex. Natural ligands of FXR are the bile acids (Cholic acid, Chenodeoxy cholic acid etc). […]
Results filed as inconclusive are left out. Active and inactive are the calls of the source. The call rests on the fitted dose curve; in most records, active means well fitted activation curve with a large enough effect in the signal ratio in the repeat runs (not every such curve was filed as active); inconclusive means weak or mixed curves, or effect the other way; inactive means flat fitted curve, though single readings scatter; the % refers to the signal ratio.
recorded.metric: outcome

{"compound": "ON=C1CCCC1", "recorded.metric": "outcome", "observed.value": "inactive"}
{"compound": "C=C(C)C(=O)OCC(O)COc1ccc(C(C)(C)c2ccc(OCC(O)COC(=O)C(=C)C)cc2)cc1 (centres undefined)", "recorded.metric": "outcome", "observed.value": "inactive"}
{"compound": "Nc1ccccc1O", "recorded.metric": "outcome", "observed.value": "inactive"}
{"compound": "Cc1ccc(O)c2ncccc12", "recorded.metric": "outcome", "observed.value": "inactive"}

----------
Assay: qHTS assay to identify small molecule antagonists of the retinoid acid receptor (RAR) signaling pathway - cell viability counter screen (AID 1159551); further: nearly all actives have a fitted effect of over 35% in size
Settings: C3RL4 cells viability, ATP luminescence (CellTiter-Glo), 6 h; series mostly up to 92.4 µM
Inconclusive results are not listed. The source made the active and inactive calls. Calls follow the shape of the dose curve; as a rule, active = well fitted cell-killing curve with a large enough effect in the repeat runs; inconclusive = weak or mixed curves, or effect the other way; inactive = flat fitted curve, though single readings scatter.
Please reply with one of these outcomes: 1 (active), 0 (inactive)

Worked examples, 3 compounds total:
{"compound": "Cc1cc(O)c(Cl)c(C)c1Cl", "group": 0}
{"compound": "CSc1cnc(C)cn1", "group": 0}
{"compound": "O=C1c2ccccc2Cc2ccccc21", "group": 0}

q: Any idea what this test logged for O=C(NOCC1CC1)c1ccc(F)c(F)c1Nc1ccc(I)cc1Cl ?
a: 0

q: Any idea what this test logged for CCCCN1C(=O)[C@@H]([C@H](O)C2CCCCC2)NC(=O)C12CCN(Cc1ccc(Oc3ccc(C(=O)O)cc3)cc1)CC2 ?
a: 0

q: Any idea what this test logged for Nc1ccc2c3c(cccc13)-c1ccccc1-2 ?
a: 0

q: Any idea what this test logged for CCCCC(CC)CN=C(N)NC(N)=NCCCCCCN=C(N)NC(N)=NCC(CC)CCCC (stereo unspecified) ?
a: 1

q: Any idea what this test logged for COC(=O)C1=C(C)NC(C)=C(C(=O)OCC(C)C)C1c1ccccc1[N+](=O)[O-] (stereo unspecified) ?
a: 0

q: Any idea what this test logged for CCc1cc(Cc2cc(CC)c(N)c(CC)c2)cc(CC)c1N ?
a: 0

q: Any idea what this test logged for CCCC(=O)OC[C@@H](OC(=O)CCC)[C@@H](OC(=O)CCC)[C@H](Cn1c2nc(=O)[nH]c(=O)c-2nc2cc(C)c(C)cc21)OC(=O)CCC ?
a: 0

q: Any idea what this test logged for CCCC(C)c1ccccc1O (stereo unspecified) ?
a: 0

----------
Assay: qHTS assay for small molecule disruptors of the mitochondrial membrane potential (AID 720635)
Conditions: HepG2 mitochondrial membrane potential, Mito-MPS dye ratio; series mostly up to 83.2 µM
Results filed as inconclusive are left out. Activity calls are given as the source filed them. The call rests on the fitted dose curve; in most records, active means well fitted inhibition curve with a large enough effect in the signal ratio in the repeat runs; inconclusive means weak or mixed curves, or effect the other way; inactive means flat fitted curve, though single readings scatter; the % refers to the signal ratio.
Please reply with one of these outcomes: active, inactive

Worked examples, 4 compounds total:
{"compound": "[O-][n+]1ccccc1SSc1cccc[n+]1[O-]", "group": "active"}
{"compound": "CCC(Cl)C(Cl)C(Cl)CC(Cl)C(Cl)C(C)Cl (stereo unspecified)", "group": "active"}
{"compound": "O=c1[nH]cnc2nc[nH]c12", "group": "inactive"}
{"compound": "O=C1c2ccccc2Cc2ccccc21", "group": "active"}

q: Any idea what this test logged for CC(C)(C)NC(=O)[C@@H]1C[C@@H]2CCCC[C@@H]2CN1C[C@@H](O)[C@H](Cc1ccccc1)NC(=O)[C@H](CC(N)=O)NC(=O)c1ccc2ccccc2n1 ?
a: active

q: Any idea what this test logged for CCCCC(CC)COP(=O)(O)OCC(CC)CCCC (stereo unspecified) ?
a: active

----------
Assay: qHTS assay to identify small molecule antagonists of the estrogen related receptor signaling pathway with the pleiotropic PPARgamma coactivator (PGC) from Tox21 10K library (AID 1224841); further: actives are mostly falling curves and most rising ones were filed inactive; nearly all actives have a fitted effect of over 50% in size
Settings: PGC/ERR reporter cell line, ONE-Glo luciferase, 18 h; series mostly up to 92.4 µM
Records with an inconclusive call do not appear. Active and inactive are the calls of the source. How the calls were made is not given here.
Please reply with one of these outcomes: yes (1) for active, no (0) for inactive

{"molecule": "[O-][n+]1ccccc1SSc1cccc[n+]1[O-]", "group": "yes (1)"}
{"molecule": "NNc1nc(-c2ccc(N)cc2)cs1", "group": "yes (1)"}
{"molecule": "Cc1cc(O)c(Cl)c(C)c1Cl", "group": "no (0)"}
{"molecule": "S=c1[nH]c2ccccc2s1", "group": "yes (1)"}
{"molecule": "C[C@@H](NCCCc1cccc(C(F)(F)F)c1)c1cccc2ccccc12", "group": "no (0)"}
{"molecule": "CCc1cc(SCc2sc(-c3ccc(C(F)(F)F)cc3)nc2CN2CCN(c3ccc(OC)cc3)CC2)ccc1OCC(=O)O", "group": "yes (1)"}
{"molecule": "Cc1cc(=O)oc2cc(N(C)C)ccc12", "group": "no (0)"}
{"molecule": "Oc1ccc2c(c1)-c1ccccc1C2", "group": "no (0)"}

q: Any idea what this test logged for COc1cccc2c1C(=O)c1c(O)c3c(c(O)c1C2=O)C[C@@](O)(C(=O)CO)C[C@@H]3O[C@H]1C[C@H](N)[C@H](O[C@@H]2CCCCO2)[C@H](C)O1 ?
a: no (0)

q: Any idea what this test logged for CCC(C)Nc1ccc(NC(C)CC)cc1 (configuration not stated) ?
a: yes (1)

q: Any idea what this test logged for CCCCCCCCCCn1cc[n+](CCCCCCCCCC)c1C ?
a: yes (1)

q: Any idea what this test logged for O=c1[nH]sc2ccccc12 ?
a: yes (1)
